Reported Ki, UniProtKB Q72874.
Give your result in nM as a bare value.

# count of solved cases: 6
STRUCTURE NOTATION: O=C1N(Cc2cccc(-c3cc[nH]n3)c2)[C@H](Cc2ccc(OCc3ccncc3)cc2)[C@H](O)[C@@H](O)[C@@H](Cc2ccc(OCc3ccncc3)cc2)N1Cc1cccc(-c2cc[nH]n2)c1
QUANTITATIVE READOUT: 0.071

STRUCTURE NOTATION: O=C1N(Cc2ccc(CO)cc2)[C@H](Cc2ccccc2)[C@H](O)[C@@H](O)[C@@H](Cc2ccccc2)N1Cc1ccc(CO)cc1
QUANTITATIVE READOUT: 0.29

STRUCTURE NOTATION: O=C1N(Cc2ccccc2)[C@H](Cc2ccc(OCCN3CCOCC3)cc2)[C@H](O)[C@@H](O)[C@@H](Cc2ccc(OCCN3CCOCC3)cc2)N1Cc1ccccc1
QUANTITATIVE READOUT: 5.9

STRUCTURE NOTATION: O=C1N(Cc2ccccc2)[C@H](Cc2ccc(OCCO)cc2)[C@H](O)[C@@H](O)[C@@H](Cc2ccc(OCCO)cc2)N1Cc1ccccc1
QUANTITATIVE READOUT: 0.76

STRUCTURE NOTATION: CN(C)CCOc1ccc(C[C@@H]2[C@H](O)[C@@H](O)[C@@H](Cc3ccc(OCCN(C)C)cc3)N(Cc3cccc(-c4cc[nH]n4)c3)C(=O)N2Cc2cccc(-c3cc[nH]n3)c2)cc1
QUANTITATIVE READOUT: 0.061

STRUCTURE NOTATION: O=C1N(Cc2cccc(-c3cc[nH]n3)c2)[C@H](Cc2ccc(OCCO)cc2)[C@H](O)[C@@H](O)[C@@H](Cc2ccc(OCCO)cc2)N1Cc1cccc(-c2cc[nH]n2)c1
QUANTITATIVE READOUT: 0.059

Task: Reported Ki for "CNCCOc1ccc(C[C@@H]2[C@H](O)[C@@H](O)[C@@H](Cc3ccc(OCCNC)cc3)N(Cc3ccccc3)C(=O)N2Cc2ccccc2)cc1" : what is it?
Result: 1.6
